Biological target: T1, human Med25 ACtivator Interaction Domain (hMed25-ACID), 6 x his-tagged human Med25_(394-543) (human, UniProt Q71SY5 394-543)
T1 construct: source: 15N-labelled in M9 medium for NMR
T1 sequence (looked up): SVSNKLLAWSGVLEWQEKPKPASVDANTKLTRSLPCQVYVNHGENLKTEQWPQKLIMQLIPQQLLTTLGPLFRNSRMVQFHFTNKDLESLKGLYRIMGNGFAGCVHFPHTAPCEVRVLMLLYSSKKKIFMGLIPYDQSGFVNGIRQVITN
Assay: SPR
Conditions: both partners purified
Provide the reported pKd of each item.
One number for each entry, as −log10 of the molar value.

# BINDER, pKd
rows = [
    ("GST-VP16-TAD (Herpes simplex virus VP16 transcription activation domain, both subdomains, residues 427-485) (domain or fragment, source: E. coli BL21 pLysS, purified (glutathione-sepharose 4B)) DGEDVAMAHADALDDFDLDMLGDGDSPGPGFTPHDSAPYGALDMADFEFEQMFTDALGI", 5.55),
]

Task: # query: pKd of entry TAPPTDVSLGDELHLDGEDVAMAHADALDDFDLDMLGDGDS (domain or fragment, source: E. coli BL21 pLysS, purified (glutathione-sepharose 4B))
Result: 5.27
